Documented melting point across a set of molecules

Look up melting point: CCc1ccc(-c2cc(OC)cc(C(=O)OC(C)C)n2)cc1
51 °C

* * *

Documented inhibition at 50 µM across a set of compounds
Study Target: murine ATGL (Mus musculus, UniProt Q8BJ56)
Construct: made in house; host or cells: Expi cells (lysate)
Sequence (Q8BJ56 1-486): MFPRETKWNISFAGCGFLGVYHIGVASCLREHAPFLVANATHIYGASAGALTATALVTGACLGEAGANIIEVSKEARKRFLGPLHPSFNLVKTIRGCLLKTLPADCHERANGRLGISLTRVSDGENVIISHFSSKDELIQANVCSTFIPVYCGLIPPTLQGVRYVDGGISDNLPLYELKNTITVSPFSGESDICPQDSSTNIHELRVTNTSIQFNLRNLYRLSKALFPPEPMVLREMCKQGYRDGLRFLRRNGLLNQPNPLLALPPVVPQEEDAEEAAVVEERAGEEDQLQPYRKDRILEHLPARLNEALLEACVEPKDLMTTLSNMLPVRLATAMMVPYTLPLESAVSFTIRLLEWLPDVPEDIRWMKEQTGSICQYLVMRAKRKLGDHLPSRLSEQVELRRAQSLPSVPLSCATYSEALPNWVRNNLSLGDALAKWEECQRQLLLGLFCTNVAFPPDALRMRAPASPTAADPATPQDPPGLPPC
Assay Comment: TG hydrolase activity, Expi lysates expressing mouse ATGL + CGI-58, radiolabelled triolein
Format: biochemical
Experimental Context: 50 μM compound; Example 237; read-out: Inhibition of murine ATGL at 50 μM − mean [%]
State the answer as a number, implicitly in %.

CCOC(=O)c1csc(-c2ccc(OCC(C)C)cc2)n1: 0
CC(C)OC(=O)c1cccc(-c2ccc(CO)cc2)n1: 0
C/C=C/COC(=O)c1csc(-c2ccc(OCC)cc2)n1: 41.2
CCOc1ccc(-c2nc(C(=O)OC(C)CC)cs2)cc1 (stereo not drawn): 7

Any idea what inhibition at 50 µM came out for CCOc1ccc(-c2nc(C(=O)OC(C)C)c(OC(C)C)s2)cc1 on murine ATGL (Mus musculus, UniProt Q8BJ56)?
0

Request: CCc1ccc(-c2cccc(C(=O)OC(C)C)n2)cc1
1.4
